tested on: HeLa Kyoto; test: melting temperature (median over replicates), in situ; higher = more thermally stable; details: cell cycle stage: G1/S;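 further: HeLa Kyoto cells synchronized by double thymidine or nocodazole block, proteins quantified by TMT10plex mass spectrometry, three independent biological replicates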
Measured Property: melting temperature (°C)
The figure you give is taken to be in °C; do not add the unit.

Field: example entries. Status: answers known.
Seq String	Readout Unit	Assay Result
MVKQIESKTAFQEALDAAGDKLVVVDFSATWCGPCKMIKPFFHSLSEKYSNVIFLEVDVDDCQDVASECEVKCMPTFQFFKKGQKVGEFSGANKEKLEATINELV [TXN]	°C	57.3
MGSRDHLFKVLVVGDAAVGKTSLVQRYSQDSFSKHYKSTVGVDFALKVLQWSDYEIVRLQLWDIAGQERFTSMTRLYYRDASACVIMFDVTNATTFSNSQRWKQDLDSKLTLPNGEPVPCLLLANKCDLSPWAVSRDQIDRFSKENGFTGWTETSVKENKNINEAMRVLIEKMMRNSTEDIMSLSTQGDYINLQTKSSSWSCC [RAB29]	°C	53
MACAAARSPADQDRFICIYPAYLNNKKTIAEGRRIPISKAVENPTATEIQDVCSAVGLNVFLEKNKMYSREWNRDVQYRGRVRVQLKQEDGSLCLVQFPSRKSVMLYAAEMIPKLKTRTQKTGGADQSLQQGEGSKKGKGKKKK [SRP19]	°C	50.8
MATRRLTDAFLLLRNNSIQNRQLLAEQVSSHITSSPLHSRSIAAELDELADDRMALVSGISLDPEAAIGVTKRPPPKWVDGVDEIQYDVGRIKQKMKELASLHDKHLNRPTLDDSSEEEHAIEITTQEITQLFHRCQRAVQALPSRARACSEQEGRLLGNVVASLAQALQELSTSFRHAQSGYLKRMKNREERSQHFFDTSVPLMDDGDDNTLYHRGFTEDQLVLVEQNTLMVEEREREIRQIVQSISDLNEIFRDLGAMIVEQGTVLDRIDYNVEQSCIKTEDGLKQLHKAEQYQKKNRKMLVILILFVIIIVLIVVLVGVKSR [STX16]	°C	51
MSNMEKHLFNLKFAAKELSRSAKKCDKEEKAEKAKIKKAIQKGNMEVARIHAENAIRQKNQAVNFLRMSARVDAVAARVQTAVTMGKVTKSMAGVVKSMDATLKTMNLEKISALMDKFEHQFETLDVQTQQMEDTMSSTTTLTTPQNQVDMLLQEMADEAGLDLNMELPQGQTGSVGTSVASAEQDELSQRLARLRDQV [CHMP1B]	°C	51.8

Q. Lab note: need melting temperature with HeLa Kyoto for entry MSFLLPKLTSKKEVDQAIKSTAEKVLVLRFGRDEDPVCLQLDDILSKTSSDLSKMAAIYLVDVDQTAVYTQYFDISYIPSTVFFFNGQHMKVDYGSPDHTKFVGSFKTKQDFIDLIEVIYRGAMRGKLIVQSPIDPKNIPKYDLLYQDI [TXNL4B] , please look it up.
A. 51

Q. Record lookup: for HeLa Kyoto, what melting temperature belongs to MGQNDLMGTAEDFADQFLRVTKQYLPHVARLCLISTFLEDGIRMWFQWSEQRDYIDTTWNCGYLLASSFVFLNLLGQLTGCVLVLSRNFVQYACFGLFGIIALQTIAYSILWDLKFLMRNLALGGGLLLLLAESRSEGKSMFAGVPTMRESSPKQYMQLGGRVLLVLMFMTLLHFDASFFSIVQNIVGTALMILVAIGFKTKLAALTLVVWLFAINVYFNAFWTIPVYKPMHDFLKYDFFQTMSVIGGLLLVVALGPGGVSMDEKKKEW [SURF4] ?
A. 57.4

All values here come from the supplement of paper PMC5998384.
